Target: hsFATP4 (Homo sapiens, UniProt Q6P1M0)
Construct: expressed in transfected cells; host or cells: 293 cells (human kidney), stably transfected with pIRES-neo-hsFATP4, G418-selected
Experiment: Uptake of radiolabeled substrates by 293 cells stably expressing FATP4
Format: cell-based
Conditions: FATP4-expressing minus control 293 cells; 10 μM substrate, 5 mM taurocholate
Procedure: Using a mammalian expression vector, we generated 40 stable […] cell lines expressing hsFATP4 and 20 cell lines transfected with a control plasmid. Several of the cell lines with the highest amount of Bodipy-FA uptake as well as isolated primary enterocytes were used to measure the uptake of radiolabeled FAs. Bodipy-FA uptake assays using FACS were performed, adapted to a 96-well format. […] Incorporated oleate was then determined by β-scintillation counting (Beckman).
MEASURED METRIC: Uptake, FATP4 specific

Answered cases to consult:
molecule="CCCCCCCC(=O)O [Octanoate, Caprylic Acid]" subject_of_test="hsFATP4 (Homo sapiens, UniProt Q6P1M0)" measured_metric="Uptake, FATP4 specific" observed_value="0 pmol/min 10^6 cells"
molecule="CC(C)CCC[C@@H](C)[C@H]1CC[C@H]2[C@@H]3CC=C4C[C@@H](O)CC[C@]4(C)[C@H]3CC[C@]12C [Cholesterol]" subject_of_test="hsFATP4 (Homo sapiens, UniProt Q6P1M0)" measured_metric="Uptake, FATP4 specific" observed_value="26 pmol/min 10^6 cells"

Entry CCCCC/C=C\C/C=C\CCCCCCCC(=O)O [Linolate, Linoleic Acid] : reported Uptake, FATP4 specific = ?
33 pmol/min 10^6 cells

Also CCCCCCCC/C=C\CCCCCCCC(=O)O [Oleate, Oleic Acid] , if possible.
459 pmol/min 10^6 cells

Can you check CCCCCCCCCCCCCCCC(=O)O [Palmitate, Palmitic Acid] next?
1131 pmol/min 10^6 cells

====

The following molecules are listed with their measured inhibition at 100 µM values.
target: FATP4 (Homo sapiens); construct: expressed in transfected cells; host or cells: 293 cells (human kidney), stably transfected with pIRES-neo-hsFATP4, G418-selected; experiment: Competition of Bodipy-FA uptake by FATP4 expressing cells (FACS); format: cell-based; conditions: 5 μM Bodipy-FA, 100 μM competitor (20-fold molar excess); 100% = effect of 200 μM lauric acid; read-out: Competition (inhibition of Bodipy-FA uptake)
Sequence (Q6P1M0 whole entry): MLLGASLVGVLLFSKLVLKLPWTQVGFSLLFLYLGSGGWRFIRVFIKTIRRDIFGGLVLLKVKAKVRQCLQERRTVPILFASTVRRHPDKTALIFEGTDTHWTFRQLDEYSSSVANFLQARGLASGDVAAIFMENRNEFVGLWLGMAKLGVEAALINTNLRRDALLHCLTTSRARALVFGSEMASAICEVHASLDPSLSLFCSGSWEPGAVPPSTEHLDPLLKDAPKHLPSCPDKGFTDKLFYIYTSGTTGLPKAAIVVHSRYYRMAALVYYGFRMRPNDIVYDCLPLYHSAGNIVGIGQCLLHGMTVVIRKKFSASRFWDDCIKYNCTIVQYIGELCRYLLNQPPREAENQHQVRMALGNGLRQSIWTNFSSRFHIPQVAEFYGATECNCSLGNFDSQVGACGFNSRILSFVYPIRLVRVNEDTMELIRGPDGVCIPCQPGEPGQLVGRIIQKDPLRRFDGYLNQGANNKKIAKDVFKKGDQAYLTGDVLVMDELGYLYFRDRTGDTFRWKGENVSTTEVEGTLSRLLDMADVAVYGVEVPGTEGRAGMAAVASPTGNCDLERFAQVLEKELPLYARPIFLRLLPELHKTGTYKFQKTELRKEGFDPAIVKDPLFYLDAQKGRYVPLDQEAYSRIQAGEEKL

Completed entries (count: 6):
molecule="CCCCC/C=C\\C/C=C\\CCCCCCCC(=O)O [Linolate, Linoleic Acid]" measured_metric="inhibition at 100 µM" observed_value="70 to 100%"
molecule=CCCCCCCCCCCCCCCC(=O)OC measured_metric="inhibition at 100 µM" observed_value="0 to 30%"
molecule=CCCCCCCCCCCCCCCCCCCCCCCCCC(=O)O measured_metric="inhibition at 100 µM" observed_value="70 to 100%"
molecule=CCCCCCCCCCCCCCCCCC(=O)O measured_metric="inhibition at 100 µM" observed_value="50 to 70%"
molecule=CCCCCCCCCCCCCCCCCCCC(=O)O measured_metric="inhibition at 100 µM" observed_value="70 to 100%"
molecule=CCCCCCCC/C=C\CCCCCCCC(=O)SCCNC(=O)CCNC(=O)[C@H](O)C(C)(C)COP(=O)(O)OP(=O)(O)OC[C@H]1O[C@@H](n2cnc3c(N)ncnc32)[C@H](O)[C@@H]1OP(=O)(O)O measured_metric="inhibition at 100 µM" observed_value="0 to 30%"

Entry CCCCCCCCCCCCCCCC(=O)O [Palmitate, Palmitic Acid] : reported inhibition at 100 µM = ?
70 to 100%

What would you report for CC1=C(/C=C/C(C)=C/C=C/C(C)=C/C(=O)O)C(C)(C)CCC1 ?
30 to 50%

Also CCCCCCCCCC(=O)O ?
70 to 100%

Same lookup for CCCCCCCC/C=C\CCCCCCCC(=O)OCC , please.
0 to 30%
